B1: library; numbered along this chain (parent)
chain: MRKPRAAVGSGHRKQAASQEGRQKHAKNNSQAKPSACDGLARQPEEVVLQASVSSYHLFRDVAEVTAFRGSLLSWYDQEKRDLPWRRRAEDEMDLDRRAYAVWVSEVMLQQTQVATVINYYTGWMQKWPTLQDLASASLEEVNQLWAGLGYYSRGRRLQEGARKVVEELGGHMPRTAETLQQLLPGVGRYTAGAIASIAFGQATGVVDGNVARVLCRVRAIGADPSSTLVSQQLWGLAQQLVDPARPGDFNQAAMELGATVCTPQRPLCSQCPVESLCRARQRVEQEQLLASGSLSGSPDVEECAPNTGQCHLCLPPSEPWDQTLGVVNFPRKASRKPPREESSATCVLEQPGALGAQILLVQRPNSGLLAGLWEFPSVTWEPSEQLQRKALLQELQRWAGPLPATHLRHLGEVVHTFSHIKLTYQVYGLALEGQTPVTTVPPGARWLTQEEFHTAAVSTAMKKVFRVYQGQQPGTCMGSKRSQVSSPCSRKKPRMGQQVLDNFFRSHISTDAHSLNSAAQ

variants of: B1; test: 8OG:A repair function score (normalized; synonymous = 0, nonsense = -1) (normalized log-likelihood score); higher = more repair activity (WT-like); settings: with 8OG:A DNA repair reporter (GFP) in HEK-293 MUTYH KO cells;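 also: cells sorted at 72 h after reporter transfection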
Catalogue of 8OG:A repair function score readings, one per entry.
Reply with the value as a number alone.

{"residue-change": "E64T", "number": 0.00694}
{"residue-change": "V261S", "number": -0.503}
{"residue-change": "K493I", "number": -0.0174}
{"residue-change": "D133K", "number": -0.175}
{"residue-change": "W75M", "number": -1.05}
{"residue-change": "L501F", "number": 0.0198}
{"residue-change": "S276H", "number": 0.0172}
{"residue-change": "G368S", "number": -0.236}

Proceed to the following item.
Which 8OG:A repair function score value belongs to L40T ?
0.087

Just for reference, the supplement of paper PMC11908140 is where these values come from.
